- measuredOn: UniProtKB P35462
- protocolDetails: β-arrestin recruitment assay (antagonist mode, competition with dopamine)
- Type: cell-based
- Design: expressed in transfected cells
- appliedConditions: potency for D3 receptors, CHO-K1 cells, vs 30 nM (EC80) dopamine; mean ± SD, three experiments; read-out: IC50
readoutLabel: pIC50
# pIC50 is unitless: minus log10 of the molar concentration; print number only

Q) Lab request: please report pIC50 under test system UniProtKB P35462 for CCN(CCCNC(=O)c1cccc(N(C)C)c1)CCNC(=O)c1cc(Br)cc(OC)c1OC [21h]
A) 8.39

Continuing:
Q) Give recorded pIC50 with UniProtKB P35462 for the following molecule: CCN(CCCCCN(C)C)CCNC(=O)c1cc(Br)cc(OC)c1OC
A) 6.82

Q) Field: pIC50 (UniProtKB P35462). Entry: CCN(CCCNC(=O)c1cn2ccccc2n1)CCNC(=O)c1cc(Br)cc(OC)c1OC [21e]
A) 8.37

Q) Find pIC50 (UniProtKB P35462) for the entry CCN(CCCNC(=O)c1ccc(-c2ccsc2)cc1)CCNC(=O)c1cc(Br)cc(OC)c1OC [21g]
A) 7.43

Q) Return pIC50 measured with UniProtKB P35462 given this molecule: CCN(CCCNC(=O)c1ccc2ccccc2c1)CCNC(=O)c1cc(Br)cc(OC)c1OC [21a]
A) 7.79

Q) Item CCN(CCCNC(=O)c1ccncc1)CCNC(=O)c1cc(Br)cc(OC)c1OC [21f] with UniProtKB P35462 - pIC50?
A) 8.57

----------
- measuredOn: human D3 receptors (Homo sapiens, UniProt P35462)
- Sequence (P35462 whole entry): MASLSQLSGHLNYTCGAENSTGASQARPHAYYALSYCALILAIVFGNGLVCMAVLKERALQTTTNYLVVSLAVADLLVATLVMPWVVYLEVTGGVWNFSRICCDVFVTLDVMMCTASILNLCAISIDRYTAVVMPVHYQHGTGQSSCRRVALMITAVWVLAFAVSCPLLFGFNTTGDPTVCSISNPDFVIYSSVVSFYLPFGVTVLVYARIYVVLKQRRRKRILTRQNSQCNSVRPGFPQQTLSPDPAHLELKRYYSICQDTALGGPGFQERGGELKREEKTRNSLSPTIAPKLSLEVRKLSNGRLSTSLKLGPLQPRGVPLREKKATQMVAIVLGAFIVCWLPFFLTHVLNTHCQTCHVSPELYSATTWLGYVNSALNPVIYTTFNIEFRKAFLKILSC
- protocolDetails: Radioligand binding assay with [125I]IABN, D3 receptor
- Parameters: expressed in transfected cells; host or cells: HEK293
- appliedConditions: selectivity ratio of Ki D2 / Ki D3 (fold)
Threshold 50: D2/D3 strictly smaller gives yes (1), otherwise no (0).

Use these answered entries as a reference point.
Q) Report whether reported D2/D3 is lower than 50 (strictly) for CCN(CCCNC(=O)c1cccc(N(C)C)c1)CCNC(=O)c1cc(Br)cc(OC)c1OC [21h]
A) yes (1)

Q) Lab note: D2/D3 threshold 50. Does this molecule come in strictly under it? CCN(CCCNC(=O)c1ccncc1)CCNC(=O)c1cc(Br)cc(OC)c1OC [21f]
A) no (0)

Continuing:
Q) Threshold test, D2/D3 < 50: CCN(CCCCN(C)C)CCNC(=O)c1cc(CCCF)cc(OC)c1OC
A) yes (1)

Q) Does this molecule meet the criterion D2/D3 < 50? CCN(CCCNC(=O)c1ccc2ccccc2c1)CCNC(=O)c1cc(Br)cc(OC)c1OC [21a]
A) no (0)

Q) Determine whether this molecule shows D2/D3 lower than 50 (ties excluded): CCN(CCCCNC(=O)c1ccc(-c2cccs2)cc1)CCNC(=O)c1cc(Br)cc(OC)c1OC
A) yes (1)

Q) Dear reviewer, please state whether COc1cc(Br)cc(C(=O)NCCN(CCCNC(=O)c2ccc(-c3cccs3)cc2)Cc2ccc(F)cc2)c1OC [20c] has D2/D3 strictly beneath 50.
A) yes (1)

----------
- measuredOn: Norepinephrine transporter (NET) (Homo sapiens, UniProt P23975)
- Sequence (P23975 whole entry): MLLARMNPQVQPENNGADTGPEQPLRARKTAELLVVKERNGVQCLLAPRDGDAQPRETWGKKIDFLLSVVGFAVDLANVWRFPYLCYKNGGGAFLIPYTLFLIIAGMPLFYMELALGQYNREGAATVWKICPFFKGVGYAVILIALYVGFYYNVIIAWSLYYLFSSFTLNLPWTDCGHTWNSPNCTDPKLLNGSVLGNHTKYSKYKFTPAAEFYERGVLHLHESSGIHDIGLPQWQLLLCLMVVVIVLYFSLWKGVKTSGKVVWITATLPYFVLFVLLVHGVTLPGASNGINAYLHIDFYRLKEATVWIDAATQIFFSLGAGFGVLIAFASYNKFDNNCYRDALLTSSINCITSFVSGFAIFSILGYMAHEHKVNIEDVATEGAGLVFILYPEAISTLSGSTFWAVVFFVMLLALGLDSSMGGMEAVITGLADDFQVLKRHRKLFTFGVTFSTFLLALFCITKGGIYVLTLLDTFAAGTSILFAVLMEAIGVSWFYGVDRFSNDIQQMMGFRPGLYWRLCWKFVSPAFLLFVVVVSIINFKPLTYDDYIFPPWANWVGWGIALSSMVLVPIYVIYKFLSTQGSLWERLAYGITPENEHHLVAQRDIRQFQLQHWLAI
Measured pKi, listed per entry for reference.
// pKi here means minus log10 of the molar concentration (mol/L)

Would you please look over these solved cases?
Q) Report pKi for CCN(CCCNC(=O)c1ccc(-c2ccsc2)cc1)CCNC(=O)c1cc(Br)cc(OC)c1OC [21g] tested on Norepinephrine transporter (NET) (Homo sapiens, UniProt P23975).
A) 5.71

Q) Notebook entry, Norepinephrine transporter (NET) (Homo sapiens, UniProt P23975) assay: pKi of CCN(CCCNC(=O)c1cc2ccccc2[nH]1)CCNC(=O)c1cc(Br)cc(OC)c1OC [21d] = ?
A) 6.07

Q) Record lookup: for Norepinephrine transporter (NET) (Homo sapiens, UniProt P23975), what pKi belongs to CCN(CCCNC(=O)c1ccc2ccccc2c1)CCNC(=O)c1cc(Br)cc(OC)c1OC [21a] ?
A) 6.41

Q) Form field: pKi recorded for CCN(CCCNC(=O)c1ccc(-c2cccs2)cc1)CCNC(=O)c1cc(Br)cc(OC)c1OC with Norepinephrine transporter (NET) (Homo sapiens, UniProt P23975) (enter value)
A) 6.11

Q) Which measured pKi belongs to CCN(CCCNC(=O)c1cc2ccccc2n1C)CCNC(=O)c1cc(Br)cc(OC)c1OC [21j] , tested on Norepinephrine transporter (NET) (Homo sapiens, UniProt P23975)?
A) 5.96

Q) Reported pKi for Norepinephrine transporter (NET) (Homo sapiens, UniProt P23975), given CCN(CCCNC(=O)c1ccsc1)CCNC(=O)c1cc(Br)cc(OC)c1OC [21i] ?
A) 5.50

Let's switch to this compound now.
Q) What pKi appears in the records for this compound with Norepinephrine transporter (NET) (Homo sapiens, UniProt P23975)? CCCN(CCCNC(=O)c1ccc(-c2cccs2)cc1)CCNC(=O)c1cc(Br)cc(OC)c1OC [20a]
A) 5.45

----------
- measuredOn: Adrenergic alpha2C (Homo sapiens)
- Sequence (P18825 whole entry): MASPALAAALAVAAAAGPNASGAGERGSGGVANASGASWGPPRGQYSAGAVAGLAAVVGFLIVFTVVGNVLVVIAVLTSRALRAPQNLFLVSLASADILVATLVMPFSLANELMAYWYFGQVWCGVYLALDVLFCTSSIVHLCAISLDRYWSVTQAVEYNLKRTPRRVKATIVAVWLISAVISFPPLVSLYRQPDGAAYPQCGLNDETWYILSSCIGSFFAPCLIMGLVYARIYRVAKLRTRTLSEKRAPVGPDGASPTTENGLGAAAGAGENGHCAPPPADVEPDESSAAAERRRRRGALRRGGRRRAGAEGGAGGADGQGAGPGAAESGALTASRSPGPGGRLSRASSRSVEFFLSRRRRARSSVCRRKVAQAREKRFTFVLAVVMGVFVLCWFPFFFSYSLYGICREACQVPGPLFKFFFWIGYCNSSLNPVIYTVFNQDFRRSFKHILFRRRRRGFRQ
- protocolDetails: PDSP binding screen
Parameter pKi: see the listing below.
Reminder that pKi means the negative base-10 logarithm of the concentration expressed in mol/L.

Known results for molecules:
Q) Provide value of pKi for this record tested with Adrenergic alpha2C (Homo sapiens): CCN(CCCNC(=O)c1cc2ccccc2n1C)CCNC(=O)c1cc(Br)cc(OC)c1OC [21j]
A) 6.74

Q) Param readout = pKi; param system = Adrenergic alpha2C (Homo sapiens); param query = CCN(CCCNC(=O)c1cn2ccccc2n1)CCNC(=O)c1cc(Br)cc(OC)c1OC [21e] ; response: value
A) 5.75

Q) Quick check: pKi on Adrenergic alpha2C (Homo sapiens), item CCN(CCCNC(=O)c1ccc(-c2ccncc2)cc1)CCNC(=O)c1cc(Br)cc(OC)c1OC [21c] ?
A) 6.28

Q) What is its pKi for Adrenergic alpha2C (Homo sapiens)? Entry: CCN(CCCNC(=O)c1cc2ccccc2[nH]1)CCNC(=O)c1cc(Br)cc(OC)c1OC [21d]
A) 6.27

Could you now consider this next molecule?
Q) Find the measured pKi: item CCN(CCCNC(=O)c1ccsc1)CCNC(=O)c1cc(Br)cc(OC)c1OC [21i] , target or system Adrenergic alpha2C (Homo sapiens).
A) 5.89

----------
- measuredOn: UniProt:P35462
- protocolDetails: Radioligand binding assay with [125I]IABN, D3 receptor
- Set-up: expressed in transfected cells; host or cells: HEK293
- appliedConditions: selectivity ratio of Ki D2 / Ki D3 (fold)
# thresholds on D2/D3 define classes: bucket A (below 3), bucket B (3 to below 100), bucket C (100 or more)

Use the examples below as a reference point.
Q) Which class is correct for the following compound? CCN(CCCCCN(C)C)CCNC(=O)c1cc(Br)cc(OC)c1OC
A) bucket B

Q) Band assignment needed for CCN(CCCNC(=O)c1cc2ccccc2[nH]1)CCNC(=O)c1cc(Br)cc(OC)c1OC [21d] please.
A) bucket C

Q) Band for CCN(CCCCCN(C)C)CCNC(=O)c1cc(CCCF)cc(OC)c1OC ?
A) bucket A

Q) Using the reported D2/D3, which band applies to CCN(CCCNC(=O)c1cn2ccccc2n1)CCNC(=O)c1cc(Br)cc(OC)c1OC [21e] ?
A) bucket B

More entries:
Q) Could you place CCN(CCCNC(=O)c1ccnc2ccccc12)CCNC(=O)c1cc(Br)cc(OC)c1OC [21b] in its proper category? Many thanks.
A) bucket B

Q) Sort into band: CCN(CCCCSc1nnc(-c2ccccc2)n1C)CCNC(=O)c1cc(Br)cc(OC)c1OC [11a]
A) bucket A

Q) Into which bin does this compound go? CCN(CCCNC(=O)c1cc2ccccc2n1C)CCNC(=O)c1cc(Br)cc(OC)c1OC [21j]
A) bucket B

Q) The entry to classify is CCCN(CCCNC(=O)c1ccc(-c2cccs2)cc1)CCNC(=O)c1cc(Br)cc(OC)c1OC [20a] ; which class holds it?
A) bucket C

----------
# pKi annotations
- measuredOn: Dopamine active transporter (DAT) (Homo sapiens, UniProt Q01959)
- Sequence (Q01959 whole entry, species assumed): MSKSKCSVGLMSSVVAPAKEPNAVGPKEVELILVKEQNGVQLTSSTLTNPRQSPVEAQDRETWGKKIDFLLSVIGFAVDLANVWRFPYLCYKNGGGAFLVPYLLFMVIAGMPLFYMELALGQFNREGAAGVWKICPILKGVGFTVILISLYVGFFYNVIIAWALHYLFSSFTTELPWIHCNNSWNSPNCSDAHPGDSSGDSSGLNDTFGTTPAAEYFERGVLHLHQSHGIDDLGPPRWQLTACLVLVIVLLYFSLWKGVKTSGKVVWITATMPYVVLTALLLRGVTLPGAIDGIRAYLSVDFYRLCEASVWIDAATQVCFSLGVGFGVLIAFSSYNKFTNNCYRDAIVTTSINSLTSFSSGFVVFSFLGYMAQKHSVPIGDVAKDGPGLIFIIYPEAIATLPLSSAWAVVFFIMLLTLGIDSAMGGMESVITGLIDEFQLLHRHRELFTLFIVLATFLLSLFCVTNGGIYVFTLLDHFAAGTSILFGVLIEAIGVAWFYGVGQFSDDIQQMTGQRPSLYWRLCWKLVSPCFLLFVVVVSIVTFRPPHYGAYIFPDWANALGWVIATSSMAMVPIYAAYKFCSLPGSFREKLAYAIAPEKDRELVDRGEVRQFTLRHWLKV
- protocolDetails: PDSP binding screen
pKi here is simply -log10 of the concentration when that concentration is written in mol/L.

Q) What does the record list as pKi for CCN(CCCNC(=O)c1ccc2ccccc2c1)CCNC(=O)c1cc(Br)cc(OC)c1OC [21a] ?
A) 7.05

Q) // query pKi value for entry CCN(CCCNC(=O)c1ccc(-c2cccs2)cc1)CCNC(=O)c1cc(Br)cc(OC)c1OC [9a]
A) 7.06

Q) Give its pKi value. Item: CCN(CCCNC(=O)c1ccc(-c2ccncc2)cc1)CCNC(=O)c1cc(Br)cc(OC)c1OC [21c]
A) 7.24

Q) Would you mind telling me what pKi value was observed for CCN(CCCNC(=O)c1ccsc1)CCNC(=O)c1cc(Br)cc(OC)c1OC [21i] ?
A) 6.54

We now examine a further molecule.
Q) Which pKi is listed for CCN(CCCNC(=O)c1ccc(-c2ccsc2)cc1)CCNC(=O)c1cc(Br)cc(OC)c1OC [21g] ?
A) 7.00
